Where these numbers come from: patent US6989390B2

- EXPERIMENT DESCRIPTION: Minimum amount of water/ethanol (1.5/4 v/v) required to dissolve the crude salt at boil (recrystallization)
- Assay type: physicochemical
- MEASUREMENT CONTEXT: minimum water/ethanol (1.5/4 v/v) to dissolve crude product at boil; salt made by the method in column 2
So I've got a bunch of molecules here, and I need their Solvent values.
Answers are plain numbers, in mL/g.

>>> print(df.to_string())
                                   molecule  measured_endpoint  value_observed
0  CN(C)CCN1C(=O)c2cccc3cc(N)cc(c23)C1=O.O=C(O)c1ccccc1O [Amonafide salicylate]            Solvent              35
1  CN(C)CCN1C(=O)c2cccc3cc(N)cc(c23)C1=O.O=C(O)CC(=O)O [Amonafide malonate, amonafide malonate]            Solvent              20
2  CN(C)CCN1C(=O)c2cccc3cc(N)cc(c23)C1=O.O=C(O)C(O)C(O)C(=O)O [Amonafide L-tartrate]            Solvent              20
3  CN(C)CCN1C(=O)c2cccc3cc(N)cc(c23)C1=O.O=C(O)CO [Amonafide glycolate]            Solvent            12.5
4  CN(C)CCN1C(=O)c2cccc3cc(N)cc(c23)C1=O.O=C(O)CCC(=O)C(=O)O [Amonafide 2-oxoglutarate]            Solvent              30

Below: the item to evaluate.
Query: What measured Solvent goes with CN(C)CCN1C(=O)c2cccc3cc(N)cc(c23)C1=O.O=C(O)CC(O)(CC(=O)O)C(=O)O [Amonafide Citrate] ?
Response: 25
